Target: Histamine H1 receptor (Rattus norvegicus)
Construct: Histamine H1 Receptors in Rat Brain Membranes; from tissue; host or cells: rat brain membranes
Sequence (P31390 whole entry): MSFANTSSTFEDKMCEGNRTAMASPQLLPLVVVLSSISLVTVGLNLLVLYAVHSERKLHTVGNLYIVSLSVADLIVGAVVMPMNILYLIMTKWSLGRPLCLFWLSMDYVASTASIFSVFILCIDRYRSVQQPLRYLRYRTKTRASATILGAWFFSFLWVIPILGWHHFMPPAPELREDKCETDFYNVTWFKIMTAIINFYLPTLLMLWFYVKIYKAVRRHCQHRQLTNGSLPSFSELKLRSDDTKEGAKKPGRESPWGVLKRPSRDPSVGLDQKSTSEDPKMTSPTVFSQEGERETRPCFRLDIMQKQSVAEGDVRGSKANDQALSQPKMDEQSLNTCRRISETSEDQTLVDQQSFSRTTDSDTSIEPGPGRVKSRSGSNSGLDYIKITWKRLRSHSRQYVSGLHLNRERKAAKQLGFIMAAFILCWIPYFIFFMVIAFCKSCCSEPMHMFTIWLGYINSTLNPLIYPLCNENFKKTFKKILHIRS
Assay: Affinity for histamine H1 receptors in rat brain membranes
Assay type: binding
MEASUREMENT_KIND: pKi
Note on pKi: it is the negative log10 of concentration, concentration in mol/L.

Look up pKi: Cl.Cl.Fc1ccc(C(=C2CCN(CCN3CCCCC3)CC2)c2ccc(F)cc2)cc1 [Compound 15, dihydrochloride]
7.07

---

Test system: brain dopamine receptors
Assay: Haloperidol receptor binding assay (HRBA), inhibition of 3H-haloperidol binding
Settings: rat corpus striatum, 0.6 nM 3H-haloperidol; 1 nM and 10 nM of test drug in primary screen, concentration per value not given
Where a name gives a salt, the structure may show the parent alone.
We use 70% as the dividing line for HRBA percent inhibition: on or above the line is 1 (yes), below is 0 (no).

> print(dat)
                                   compound  category.label
1  Cl.Cl.Fc1ccc(C(=C2CCN(CCN3CCCCC3)CC2)c2ccc(F)cc2)cc1 [Compound 15]          0 (no)
2  OC1CCN(CCCN2CCC(=C(c3ccccc3)c3ccccc3)CC2)CC1 [Compound 12, hemihydrate]         1 (yes)
3  CNC(=NC#N)NCCCN1CCC(=C(c2ccccc2)c2ccccc2)CC1 [Compound 22]         1 (yes)
4  OCCC1CCN(CCCN2CCC(=C(c3ccccc3)c3ccccc3)CC2)CC1 [Compound 13, dihydrochloride, monohydrate]          0 (no)
5  Fc1ccc(C(=C2CCN(CCCN3CCCCC3)CC2)c2ccc(F)cc2)cc1 [Compound 14]         1 (yes)
6  Fc1cccc(C(=C2CCN(CCCN3CCCCC3)CC2)c2ccccc2)c1 [Compound 19, dihydrochloride]          0 (no)

Next up:
In plain terms: is recorded HRBA percent inhibition at least 70% for Cl.Cl.Clc1cccc(C(=C2CCN(CCCN3CCCCC3)CC2)c2ccccc2)c1 [Compound 18] ?
0 (no)

---

Molecular target: brain dopamine receptors
Test: Haloperidol receptor binding assay (HRBA), inhibition of 3H-haloperidol binding
Conditions: rat corpus striatum, 0.6 nM 3H-haloperidol, pH 7.7
Structures can show the parent of a compound that is named as a salt.
MEASUREMENT_KIND: IC50 (µM)
State the answer as a number, implicitly in µM.

Field: example entries. Status: answers known.
> print(dat)
                                   compound  result.value
1  CSC(=NC#N)NCCCN1CCC(=C(c2ccccc2)c2ccccc2)CC1        0.0392
2  c1ccc(C(=C2CCN(CCN3CCCCC3)CC2)c2ccccc2)cc1         0.135
3  c1ccc(C(=C2CCN(CCN3CCOCC3)CC2)c2ccccc2)cc1 [Compound 1, dihydrochloride]         0.029
4  c1ccc(C(=C2CCN(CCCN3CCCCC3)CC2)c2ccccc2)cc1 [Compound 4, dihydrochloride, hemihydrate]        0.0504

In the following, a different compound is considered.
For the record `O=C(CCN1CCC(=C(c2ccccc2)c2ccccc2)CC1)N1CCC(O)(O)CC1` , what value of IC50 is listed for brain dopamine receptors?
0.367

---

Tested on: brain dopamine receptors
Assay: Haloperidol receptor binding assay (HRBA), inhibition of 3H-haloperidol binding
Details: rat corpus striatum, 0.6 nM 3H-haloperidol; 1 nM and 10 nM of test drug in primary screen, concentration per value not given
MEASUREMENT_KIND: HRBA percent inhibition (%)
State the answer as a number, implicitly in %.

Field: example entries. Status: answers known.
> print(dat)
                                   molecule  result.value
1  N#CN=C(NCCCN1CCC(=C(c2ccccc2)c2ccccc2)CC1)N1CCCCC1            55
2  CC1(C)CC(=O)C=C(NCCN2CCC(=C(c3ccccc3)c3ccccc3)CC2)C1            63

Look up HRBA percent inhibition: CN1CCCC1CCN1CCC(=C(c2ccc(F)cc2)c2ccc(F)cc2)CC1 (stereo not drawn)
48
